tgt: T1, mouse CNTN4-rabbit Fc (mouse; rabbit, UniProt Q69Z26 19-1000, limits assumed)
T1 construct: not shown: rabbit Fc
T1 sequence (looked up): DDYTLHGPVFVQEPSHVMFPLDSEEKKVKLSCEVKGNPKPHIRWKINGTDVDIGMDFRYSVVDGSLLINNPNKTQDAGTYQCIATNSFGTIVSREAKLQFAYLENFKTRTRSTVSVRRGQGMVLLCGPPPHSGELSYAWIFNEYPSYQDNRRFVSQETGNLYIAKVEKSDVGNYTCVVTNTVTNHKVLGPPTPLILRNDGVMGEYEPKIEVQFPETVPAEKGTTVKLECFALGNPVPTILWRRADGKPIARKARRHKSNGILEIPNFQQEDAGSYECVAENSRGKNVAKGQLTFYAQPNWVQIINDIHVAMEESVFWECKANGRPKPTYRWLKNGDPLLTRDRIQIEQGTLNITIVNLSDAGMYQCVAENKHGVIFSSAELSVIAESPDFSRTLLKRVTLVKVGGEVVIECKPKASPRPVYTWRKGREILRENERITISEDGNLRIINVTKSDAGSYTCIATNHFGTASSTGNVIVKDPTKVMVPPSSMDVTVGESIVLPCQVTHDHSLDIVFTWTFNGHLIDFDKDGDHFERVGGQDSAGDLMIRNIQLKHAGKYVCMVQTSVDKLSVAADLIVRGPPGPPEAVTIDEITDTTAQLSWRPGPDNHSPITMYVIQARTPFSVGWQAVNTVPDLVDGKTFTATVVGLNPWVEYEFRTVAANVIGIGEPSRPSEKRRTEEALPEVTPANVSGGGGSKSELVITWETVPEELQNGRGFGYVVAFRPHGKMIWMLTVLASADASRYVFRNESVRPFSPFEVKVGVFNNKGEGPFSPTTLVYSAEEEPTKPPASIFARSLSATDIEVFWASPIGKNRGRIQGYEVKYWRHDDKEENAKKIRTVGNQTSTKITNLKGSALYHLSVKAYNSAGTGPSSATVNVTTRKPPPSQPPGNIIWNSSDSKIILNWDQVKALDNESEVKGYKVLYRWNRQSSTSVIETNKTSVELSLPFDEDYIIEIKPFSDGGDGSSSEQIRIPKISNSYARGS
method.description: ELISA, plate coated with antigen-rabbit Fc, anti-human IgG Fc-HRP
pEC50: −log10 of the molar value.
measure.name: pEC50

- binder: "anti-CNTN4 IgG A13WB2 (antibody, V domains shown, human IgG4 (S228P)) VH: AVTLDESGGGLHTPGGALSLVCKASGFTFSSYGMAWVRQAPGKGLEWVAGITSSGSSAGYGPAVKGRATISRDNGQSTVRLQLNNLRAEDTATYYCAKDGYIYSGADSDSIDAWGHGTEVIVSS VL: ALTQPSSVSANLGGTVEITCSGGYSGYGWYQQKSPGSAPVTLIYYNDKRPSDIPSRFSGSKSGSTGTLTITGVQAEDEAVYFCGSRDSSTYVDIFGAGTTLTVL"
  numeric.readout: 11.00
- binder: "anti-CNTN4 IgG A35SF37 (antibody, V domains shown, human IgG4 (S228P)) VH: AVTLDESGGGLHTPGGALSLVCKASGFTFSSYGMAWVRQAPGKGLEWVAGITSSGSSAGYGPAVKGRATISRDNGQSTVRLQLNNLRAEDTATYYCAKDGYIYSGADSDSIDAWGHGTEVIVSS VL: ALTQPSSVSANLGGTVKITCSGGSNNYGWYQQKSPGSAPVTVIYYNNKRPSDIPSRFSGSKSGSTATLTITGVQAEDEAVYFCGGYDSSSNSDVYGAGTTLTVL"
  numeric.readout: 11.00
